Consider the following sequences; for each one, report its apparent KD of K4 kissing-loop reporter.
system: K4 kissing-loop RNA reporter; experiment: apparent KD of K4 kissing-loop reporter; higher = weaker reporter binding; details: Eterna round: R107; input ligand: arginine 13.2 mM;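 note: bound reporter read as fluorescence of individual clusters on recovered sequencing chips by microscopy, with normalized cluster intensities fitted with a binding model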
// note: answer is a bare numeric in nM

Record AGGAGCGUGGGAUGAAAAUCGCACGCUCCUCGAGGACCGGUACGGCCGCCACUCGCUCGCGCCGAGUGAUGUUCGGCCGGCGAAC [#2 Same State - Tryptophan A Attempt #12 (HarryS)] / K4 kissing-loop RNA reporter, apparent KD of K4 kissing-loop reporter recorded as 244

Record for AAUACCUGAGUGAUGUUCAGGGAAUCAGAAGGAGCGUCAAUUAUGACAGGUAGGUCGCUGAAGACAUGUGUGUAUACACAUGUCC [#04 K4 Arginine A Same State] under target or system K4 kissing-loop RNA reporter: apparent KD of K4 kissing-loop reporter reported as 198

Response field apparent KD of K4 kissing-loop reporter (K4 kissing-loop RNA reporter) for item GCGGCGGGCCAAGGAUAUAUAUUGGAGUGAUGUUGUUCAUUUAUUUGAGCUAGUGAUGUUGGUCAAAUAGAAGGUGGCCCGCCGC [whbob_Ex_FMNB__2th217] : 34.6

Record CCAUCGCUAUUCGAUACCAGUCAAGAGGUCUUUGGCCUCUUAAUGGAGUGAUGUUCCUUAGACCCUUGGCAGCGAAUAGUGAUGG [Theophylline B K4 13] ; system K4 kissing-loop RNA reporter; apparent KD of K4 kissing-loop reporter = 127

Param item: GCUCGGGAGUGAUGUUCCAAGUGGUGUUAACGAGGACCGGUACGGCCGCCACUCGAUACGGCCGGACCGUAGGAUAAACUGGAGC [Same State - Tryptophan A (Freestyle 12)] ; param system: K4 kissing-loop RNA reporter; output apparent KD of K4 kissing-loop reporter: 110

I looked up GACUCAUGUAGAAGGAGCGUCAGAAGUUAUAGACAUGAGUGAUGUUCAUGUUAGCUGAUUUGACAGGUAGGUCGCUACAGCAGGA [KL-SSArg B16 #analogue] and its apparent KD of K4 kissing-loop reporter for K4 kissing-loop RNA reporter was 100

Entry CCUUCUCUUGGUAGUGAUGUUAUCAAGGACAAGGAUAUCAUCUCAAUGAGAAGGUGUCCUUGAUAACAUGGAGGUCUGAAACAGA [Omei KL FMN A Exc C v8] , tested on K4 kissing-loop RNA reporter, has a reported apparent KD of K4 kissing-loop reporter of 352

Measured on K4 kissing-loop RNA reporter, AGACUACCACACUGUCAAUAGACAGUGAACUAGGAUAUGCUGAUAAGCAGAAGGAGUGAUGUUCCUCGGUAGUCAAUAAAAUAAU [FmnAX 13 C67] has a documented apparent KD of K4 kissing-loop reporter of 255

Let me check: `GCCGUACGCAUGGAUACCAGCAUUUAUGACACACUGCUAGUGAUGUUAGCUAUGCGUAUAUGCCCUUGGCAGCCAUGCGUACGGC` , system K4 kissing-loop RNA reporter, measured apparent KD of K4 kissing-loop reporter is 128

Sample GCAUGUAUGCGAGAGUGAUGUUCAUGGUUUCGAGGACCGGUACGGCCGCCACUCGCGAUCCGGCGUACAAUCGUGAAGUUAUCAU [theeternabot_sameState_KL_Trp_A_42] , system: K4 kissing-loop RNA reporter. Its apparent KD of K4 kissing-loop reporter is 469

# value of apparent KD of K4 kissing-loop reporter, K4 kissing-loop RNA reporter, item AAGAGUUGACGAAAAGUCAACUCACGAGAAGGAGCGCACGAAAGUGCAGGUAGGUCGCUCAGUCCAGUGAUGUUGGAACAUAAAA [#OpenEnded 7] = 114

Given the sequence AUUUUGGUUUAGAGUGAUGUUCCUUGUAUUCGAGGACCGGUACGGCCGCCACUCGAAUAGAAAAGAAAAGAAAUGUGUGAUGUUU [BDazzled - #5 SS Tryptophan A] and test system K4 kissing-loop RNA reporter, the measured apparent KD of K4 kissing-loop reporter is 611

The observed apparent KD of K4 kissing-loop reporter for GACAUCUAUCGCCGAUAGUGUUUAUCUUGGGAGGAUAUGUCAGCGGACAGAAGGCCCAGUGAUGUUGGGUAGAUGACCGUUGCCU [Orerditi] when tested with K4 kissing-loop RNA reporter stands at 123

Record for CCUAUCUCAUACGAUACCAGUCAACGAGUGAUGUUCGAAUAAAUAAAUUUGCCAUAUAAUGACCCUUGGCAGCGUAUGGGAUAGG [Ex Theophylline B K4 14] under target or system K4 kissing-loop RNA reporter: apparent KD of K4 kissing-loop reporter reported as 373

Recorded apparent KD of K4 kissing-loop reporter for AGACUACUGAUAGGAUAUAACAUCCUAGUCGUAUACCGAAAGGUAUACGAUUCCCUUCUAGUGAUGUUAGAAGGGUCGGUAGUCA [Omei KL FMN B Exc B v12] on K4 kissing-loop RNA reporter was 69.2

I looked up UUCUAAAUGUCUGAUACCAGAGAAAAUAUAUGUAGUGAUGUUAUAUACAAAUUUAAUAAGCUCCCUUGGCAGCAGUAUGAAUUUU [AstrosExc-TheB#13] and its apparent KD of K4 kissing-loop reporter for K4 kissing-loop RNA reporter was 744

# apparent KD of K4 kissing-loop reporter measured on K4 kissing-loop RNA reporter for item `GGCAUCCAUGGACAUAGUGAUGUUAUGUGCCGAGGACCGGUACGGCCGCCACUCGACCAUGGAUGCCGCAAUCGGAAACGAUUGC` = 915

Tested on K4 kissing-loop RNA reporter, the item AGCAGUCACUCGAAAAACCAUCGAAGAUGGCGAGGACCGGUACGGCCGCCACUCGGAGUGAUGUUCCGAAGACUGCAAAAUAAAA [#SwitchBubble 15] showed apparent KD of K4 kissing-loop reporter equal to 438

Record for AUUAUAUAAUGGAGUGAUGUUCCAUCAGAUACCAGUGAAUUUGAACACCCUUGGCAGCUGUUGUUCAAAUAAUUUAAAUCCUUUA [JR_SSTheophyA_Sub019] under target or system K4 kissing-loop RNA reporter: apparent KD of K4 kissing-loop reporter reported as 150

Record UGUACUCUGAAAGGAUAUGUGAGCCCUUUUUGUUAGUGAUGUUGACACGGAAACACCAUCAGACUUACAGAAGGUUCGUUGGGUA [theeternabot_sameState_KL_FMN_B_17] / K4 kissing-loop RNA reporter, apparent KD of K4 kissing-loop reporter recorded as 183

Recorded apparent KD of K4 kissing-loop reporter for ACCAUCAAAGAUGGCCAGGACUCAACUGAUACCAGAGUGGAGACACUCCCUUGGCAGCAGGUGAGUGAUGUUCACGAGUCCUGGA [Omel KL Theo A SS B v9] on K4 kissing-loop RNA reporter was 801

# UGACUACAAAAGGAAUAAUCCUAGUGAUGUUAGGAUAUGCUGAUAAGCAGAAGGAACGGAGAUCGAAAGAUCUCAUAUGUAGUCU [whbob_Ex_FMNA__2th192] with K4 kissing-loop RNA reporter: apparent KD of K4 kissing-loop reporter is 87.4

The value of apparent KD of K4 kissing-loop reporter recorded for `GCCGUAGAUUGAAGGAGCGGUAUGGGCGUUGGCUGAGUGAUGUUCAGGAAAAGUGGCUUCUACCAGGUAGGUCGCAAUCUACGGC` when tested on K4 kissing-loop RNA reporter reads 110
